Provenance of the data: patent US8119621B2

Let's look at some compounds and their measured inhibition at 0.25 µM.
Molecular target: human CB2 receptor (Homo sapiens)
Construct: expressed in transfected cells; host or cells: SK-N-MC cells, stably transfected with pcDNA3 CB-2 (human); semi-purified membrane pellet
Sequence (P34972 whole entry): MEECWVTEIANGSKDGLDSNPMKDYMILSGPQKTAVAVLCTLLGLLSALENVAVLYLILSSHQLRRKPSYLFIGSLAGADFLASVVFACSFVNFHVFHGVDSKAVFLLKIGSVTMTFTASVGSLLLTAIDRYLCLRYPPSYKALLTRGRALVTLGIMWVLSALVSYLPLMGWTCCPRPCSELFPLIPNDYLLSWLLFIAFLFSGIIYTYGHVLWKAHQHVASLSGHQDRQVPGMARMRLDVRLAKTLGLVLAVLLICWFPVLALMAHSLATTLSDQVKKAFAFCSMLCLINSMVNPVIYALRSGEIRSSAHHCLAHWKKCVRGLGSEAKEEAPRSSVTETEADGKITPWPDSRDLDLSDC
Test: Binding assay for CB2 agonists or inverse agonists ([3H]-CP-55,940 displacement, SK-N-MC membranes)
Details: read-out: CB2 receptor binding percent inhibition
Protocol: The human CB1 and CB2 receptors were stably expressed in SK-N-MC cells transfected with pcDNA3 CB-1 (human) or pcDNA3 CB-2 (human). […] On the day of the assay, the pellet was thawed on ice and diluted in assay buffer (50 mM Tris-HCl, 5 mM MgCl2, 2.5 mM EDTA, 0.5 mg/mL fatty acid free bovine serum albumin, pH 7.5). […] The Unifilter plate was dried, a scintillation cocktail was added to each well and the counts representing binding were quantitated in a TopCount scintillation counter. […]
parameter: inhibition at 0.25 µM (%)

compound="C[C@@H](NS(=O)(=O)/C=C/c1nn(-c2ccc(F)cc2F)c2c1CCC2Cc1cccc(F)c1)c1ccccc1 (some centres unmarked)" val=17
compound="CC12CCC(C1)C(C)(C)[C@H]2NC(=O)c1nn(-c2ccc(F)cc2F)c2c1CCC2Cc1cccc(F)c1 (some centres unmarked)" val=70
compound="C[C@@H](NC(=O)c1nn(-c2ccc(F)cc2F)c2c1CCC2Cc1cccc(F)c1)C1CCCCC1 (some centres unmarked)" val=61
compound="C[C@H](NS(=O)(=O)/C=C/c1nn(-c2ccc(F)cc2F)c2c1CCC2Cc1cccc(F)c1)c1ccccc1 (some centres unmarked)" val=14
compound="C[C@H](NC(=O)c1nn(-c2ccc(F)cc2F)c2c1CCC2Cc1cccc(F)c1)C1CCCCC1 (some centres unmarked)" val=44
